This collection of values is drawn from patent US20260217701A1.

Assay: Dog PK study #4 (Compound A PO daily 14 days, 1/3/10 mg/kg; toxicokinetics, platelet counts)
Format: in vivo, beagle dogs
Settings: both sexes, beagle, dog, plasma, oral; after daily administration for 14 days, 10 mg/kg, Pooled Mean, 1 h
measured.quantity: concentration at 1 h (ng/mL)
One number for each entry, in ng/mL.

Input line: Recorded concentration at 1 h of Cn1cc(-c2ccccc2)c(-c2cn(C)c(=O)c3[nH]c(-c4cnn(C(F)(F)F)c4)cc23)cc1=O , please.
Output line: 1540

----------
Assay: Dog PK study #4 (Compound A PO daily 14 days, 1/3/10 mg/kg; toxicokinetics, platelet counts)
Type: in vivo, beagle dogs
Conditions: beagle, dog, plasma, oral; after daily administration for 14 days, 10 mg/kg, Male, 4 h
measured.quantity: concentration at 4 h (ng/mL)
One number for each entry, in ng/mL.

Input line: Recorded concentration at 4 h of Cn1cc(-c2ccccc2)c(-c2cn(C)c(=O)c3[nH]c(-c4cnn(C(F)(F)F)c4)cc23)cc1=O , please.
Output line: 1350

----------
Test: CIA study: pharmacokinetics / plasma concentration after oral administration
Assay type: in vivo, Lewis rats
Conditions: Lewis, rat, plasma, po, 3 mg/kg, CIA-induced animals, day 21, 3 mg/kg, average; read-out: T1/2 (Mean) (converted)
measured.quantity: half-life (h)
One number for each entry, in h.

Input line: Recorded half-life of Cn1cc(-c2ccccc2)c(-c2cn(C)c(=O)c3[nH]c(-c4cnn(C(F)(F)F)c4)cc23)cc1=O , please.
Output line: 8.9

----------
System: IL-17A
Experiment: IL-17A release from activated human PBMCs (ELISA)
Format: cell-based
Details: Homo sapiens, PBMC; ELISA; read-out: Selectivity (IC50) IL-17A
measured.quantity: IC50 (pM)
Answers are plain numbers, in pM.

Input line: Recorded IC50 of Cn1cc(-c2ccccc2)c(-c2cn(C)c(=O)c3[nH]c(-c4cnn(C(F)(F)F)c4)cc23)cc1=O [Compound A] , please.
Output line: 271

----------
Assay: Dog PK study #3 (Compound A PO once daily 5 days, 5/10/20 mg/kg; PK, body weight, hematology)
Type: in vivo, beagle dogs
Conditions: male, beagle, dog, plasma, po, 10 mg/kg, Day 5, 10 mg/kg dose PO; individual animals
measured.quantity: AUC(0-t) (ng·h/mL)
One number for each entry, in ng·h/mL.

Input line: Recorded AUC(0-t) of Cn1cc(-c2ccccc2)c(-c2cn(C)c(=O)c3[nH]c(-c4cnn(C(F)(F)F)c4)cc23)cc1=O [Compound A] , please.
Output line: 20500

----------
Assay: Dog PK study #3 (Compound A PO once daily 5 days, 5/10/20 mg/kg; PK, body weight, hematology)
Format: in vivo, beagle dogs
Settings: male, beagle, dog, plasma, po, 5 mg/kg, Day 5, 5 mg/kg dose PO; individual animals; read-out: MRT0-last
measured.quantity: MRT last (h)
Answers are plain numbers, in h.

Input line: Recorded MRT last of Cn1cc(-c2ccccc2)c(-c2cn(C)c(=O)c3[nH]c(-c4cnn(C(F)(F)F)c4)cc23)cc1=O [Compound A] , please.
Output line: 9.78

----------
Experiment: Dog PK study #3 (Compound A PO once daily 5 days, 5/10/20 mg/kg; PK, body weight, hematology)
Assay type: in vivo, beagle dogs
Details: male, beagle, dog, plasma, po, 10 mg/kg, Day 1, 10 mg/kg dose PO; individual animals
measured.quantity: AUC(0-t) (ng·h/mL)
Give bare numbers, in ng·h/mL.

Input line: Recorded AUC(0-t) of Cn1cc(-c2ccccc2)c(-c2cn(C)c(=O)c3[nH]c(-c4cnn(C(F)(F)F)c4)cc23)cc1=O , please.
Output line: 19500
